Entry source: patent US20100075370A1

- Tested on: pBMC from patients with CLL
- Assay comment: Cytotoxicity of several antineoplastic agents on pBMC (LC90), fixed volume flow cytometry
- Format: cell-based, human
- Condition details: pBMC of CLL patient #8, ex vivo; in µg/mL
Flag rule - LC90 less than 10 flags 1.0; the remaining entries get 0.0.

Nc1nc(Cl)nc2c1ncn2[C@H]1C[C@H](O)[C@@H](CO)O1 :: 1.0
O=C1c2c(O)ccc(O)c2C(=O)c2c(NCCNCCO)ccc(NCCNCCO)c21 :: 1.0
C[C@]12C=CC(=O)C=C1CC[C@@H]1[C@@H]2[C@@H](O)C[C@@]2(C)[C@H]1CC[C@]2(O)C(=O)CO :: 0.0

Prompt: Does Nc1nc(F)nc2c1ncn2[C@@H]1O[C@H](COP(=O)(O)O)[C@@H](O)[C@@H]1O [Fludarabine phosphate] have LC90 strictly under 10?
Response: 0.0

----------
- Test system: pBMC from patients with CLL
- Assay comment: Cytotoxicity of several antineoplastic agents on pBMC (LC90), fixed volume flow cytometry
- Assay type: cell-based, human
- Condition details: pBMC of CLL patient #21, ex vivo; in µg/mL
Endpoint: LC90

C[C@]12C=CC(=O)C=C1CC[C@@H]1[C@@H]2[C@@H](O)C[C@@]2(C)[C@H]1CC[C@]2(O)C(=O)CO :: 0.54
Nc1nc(Cl)nc2c1ncn2[C@H]1C[C@H](O)[C@@H](CO)O1 :: 0.005
CC[C@]1(O)C[C@H]2CN(CCc3c([nH]c4ccccc34)[C@@](C(=O)OC)(c3cc4c(cc3OC)N(C=O)[C@H]3[C@@](O)(C(=O)OC)[C@H](OC(C)=O)[C@]5(CC)C=CCN6CC[C@]43[C@@H]65)C2)C1 :: 0.10
O=C1c2c(O)ccc(O)c2C(=O)c2c(NCCNCCO)ccc(NCCNCCO)c21 :: 0.05

Let's switch to this compound now.
Prompt: Any idea what LC90 was measured for Nc1nc(F)nc2c1ncn2[C@@H]1O[C@H](COP(=O)(O)O)[C@@H](O)[C@@H]1O [Fludarabine phosphate] ?
Response: 0.11
